test system: SK-MEL-28 melanoma; assay: NCI-60 one-dose screen, 48 h (100 = growth as untreated, 0 = no growth, -100 = all killed); settings: 10 µM unless noted
The panel holds about 83,000 compounds, 20% with a hit somewhere; the sample as a whole holds those more often.
reported.property: growth (%)
Give the quantity in %, number only.

[[record]]
compound = "CN1C2C=CC(=O)C1C1C(=O)N(c3ccccc3)C(=O)C12 (stereo not given)"
reported_property = "growth"
result_number = 95.4


Please examine the following record next.
Ask: Under SK-MEL-28 melanoma: report growth of NC(=O)Cc1nc(O)cc(=O)[nH]1 .
Reply: 113
